Target: human melatonin ML1a receptor (Homo sapiens, UniProt P48039)
Sequence (P48039 whole entry): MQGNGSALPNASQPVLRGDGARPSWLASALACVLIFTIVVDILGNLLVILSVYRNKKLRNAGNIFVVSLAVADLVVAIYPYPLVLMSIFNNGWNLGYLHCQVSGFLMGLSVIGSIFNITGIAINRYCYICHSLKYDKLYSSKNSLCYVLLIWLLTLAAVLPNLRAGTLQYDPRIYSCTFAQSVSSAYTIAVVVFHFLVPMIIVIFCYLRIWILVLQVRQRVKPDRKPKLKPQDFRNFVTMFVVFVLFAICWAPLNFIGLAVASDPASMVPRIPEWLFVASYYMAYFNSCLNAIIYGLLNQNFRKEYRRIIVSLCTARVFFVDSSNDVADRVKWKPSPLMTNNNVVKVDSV
Entries annotated with measured IC50

molecule: CC(=O)N[C@H]1CCN(c2cccc3c2OCCO3)C1 [Example 14]
IC50: 10 to 200 nM
//
molecule: CCNC(=O)N[C@H]1CCN(c2cccc3c2OCCO3)C1 [Example 28]
IC50: 10 to 200 nM
//
molecule: O=C(N[C@@H]1CCN(c2cccc3c2CCO3)C1)C1CC1 [Example 10]
IC50: < 10 nM
//
molecule: CN(C)C(=O)N[C@H]1CCN(c2cccc3c2CCO3)C1 [Example 32]
IC50: 10 to 200 nM

Now let's try a different one.
In: Sample CCC(=O)N[C@@H]1CCN(c2cccc3c2CCO3)C1 [Example 4] — what was its IC50?
Out: 10 to 200 nM
